Entry source: patent US20030032580A1

- subject-of-test: 5-HT2B receptor (second phase of the concentration-effect curve to 5-CT in the rat bladder) (Rattus norvegicus)
- Sequence (P30994 whole entry): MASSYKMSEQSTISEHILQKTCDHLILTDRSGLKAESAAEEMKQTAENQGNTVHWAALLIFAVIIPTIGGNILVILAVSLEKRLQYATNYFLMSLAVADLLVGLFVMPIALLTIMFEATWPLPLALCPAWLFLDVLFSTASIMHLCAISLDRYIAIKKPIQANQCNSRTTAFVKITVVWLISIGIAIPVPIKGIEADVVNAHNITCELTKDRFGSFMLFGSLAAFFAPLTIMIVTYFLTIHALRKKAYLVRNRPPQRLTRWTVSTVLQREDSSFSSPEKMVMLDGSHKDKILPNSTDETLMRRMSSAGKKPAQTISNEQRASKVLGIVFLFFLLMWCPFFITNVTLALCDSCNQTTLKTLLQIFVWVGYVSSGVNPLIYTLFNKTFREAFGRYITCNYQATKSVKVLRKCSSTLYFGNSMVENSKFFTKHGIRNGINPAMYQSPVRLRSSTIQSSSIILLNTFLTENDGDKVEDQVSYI
- experiment-notes: Electrically stimulated rat bladder strips: second (low potency) phase of the concentration-effect curve to 5-CT
pEC50: −log10 of the molar value.
measurement-type: pEC50

>  <compound>
NCCc1c[nH]c2ccc(C(N)=O)cc12 [5-CT, 5-carboxamidotryptamine]

>  <assay-result>
6.80

$$$$
